ASSAY: Solubility by visual inspection (DMSO stock solution and assay medium)
Type: physicochemical
EXPERIMENTAL_CONDITIONS: Lab 4, visual observation, assay medium
VALUE_KIND: PHH medium stability (µg/mL)
Give bare numbers, in µg/mL.

See these solved cases before continuing.
# COMPOUND, OUTPUT_UNIT, PHH medium stability
measured = [
    ("OCc1c[nH]c2ccccc12", "µg/mL", 10),
    ("CC1(C)S[C@@H]2[C@H](NC(=O)Cc3ccccc3)C(=O)N2[C@H]1C(=O)O [Penicillin G sodium]", "µg/mL", 40),
    ("O=C1Nc2ccc(Cl)cc2[C@@](C#CC2CC2)(C(F)(F)F)O1", "µg/mL", 40),
    ("CO[C@H]1/C=C/O[C@@]2(C)Oc3c(C)c(O)c4c(c3C2=O)C2=NC3(CCN(CC(C)C)CC3)NC2=C(NC(=O)/C(C)=C\\C=C\\[C@H](C)[C@H](O)[C@@H](C)[C@@H](O)[C@@H](C)[C@H](OC(C)=O)[C@@H]1C)C4=O", "µg/mL", 40),
]

Could you now consider this next compound?
Ask: Entry under review: O=C1NC(=O)C(c2ccccc2)(c2ccccc2)N1 [Phenytoin sodium] . Reported PHH medium stability?
Reply: 40

====

I'd be grateful if you could share measured Assigned classification CYP2B6 for these entries.
Test system: CYP2B6
ASSAY: CYP2B6 enzyme induction assay in cryopreserved HepaRG cells (bupropion probe, LC/MS); note: key: 1=Positive=inducer; 0=Negative=non-inducer
Type: in vitro ADME, human
EXPERIMENTAL_CONDITIONS: HepaRG; Lab 3; batch 36
Counter-ions that a name gives are not always drawn.
Numbers only.

See these solved cases before continuing.
# COMPOUND, OBSERVED
measured = [
    ("NC(=O)N1c2ccccc2C=Cc2ccccc21 [Carbamazepine]", 1),
    ("COc1ccccc1Oc1c(NS(=O)(=O)c2ccc(C(C)(C)C)cc2)nc(-c2ncccn2)nc1OCCO [Bosentan hydrate]", 0),
    ("CO[C@H]1/C=C/O[C@@]2(C)Oc3c(C)c(O)c4c(O)c(c(/C=N/N5CCN(C)CC5)c(O)c4c3C2=O)NC(=O)/C(C)=C\\C=C\\[C@H](C)[C@H](O)[C@@H](C)[C@@H](O)[C@@H](C)[C@H](OC(C)=O)[C@@H]1C [Rifampicin]", 1),
    ("COCCc1ccc(OCC(O)CNC(C)C)cc1 (stereo not shown) [Metoprolol]", 0),
    ("O=C1NC(=O)C(c2ccccc2)(c2ccccc2)N1 [Phenytoin sodium]", 1),
    ("CC(C)NCC(O)c1ccc(NS(C)(=O)=O)cc1 (stereo not shown) [Sotalol hydrochloride]", 0),
]

Could you now consider this next compound?
Ask: Given the entry COc1ccc2[nH]c([S+]([O-])Cc3ncc(C)c(OC)c3C)nc2c1 (stereo not shown) [Omeprazole] , what Assigned classification CYP2B6 was observed with CYP2B6?
Reply: 0

====

System: CYP1A2
ASSAY: CYP1A2 enzyme induction assay in cryopreserved HepaRG cells (phenacetin probe, LC/MS); note: key: 1=Positive=inducer; 0=Negative=non-inducer
Format: in vitro ADME, human
EXPERIMENTAL_CONDITIONS: HepaRG; Lab 3; batch 36
Where a name gives a salt, the structure may show the parent alone.
VALUE_KIND: Assigned classification CYP1A2
One number for each entry.

See these solved cases before continuing.
# MOLECULE, Assigned classification CYP1A2
measured = [
    ("NC(=O)N1c2ccccc2C=Cc2ccccc21 [Carbamazepine]", 1),
    ("COCCc1ccc(OCC(O)CNC(C)C)cc1 (stereo not shown)", 0),
    ("CC(C)NCC(O)c1ccc(NS(C)(=O)=O)cc1 (stereo not shown) [Sotalol hydrochloride]", 0),
    ("CO[C@H]1/C=C/O[C@@]2(C)Oc3c(C)c(O)c4c(O)c(c(/C=N/N5CCN(C)CC5)c(O)c4c3C2=O)NC(=O)/C(C)=C\\C=C\\[C@H](C)[C@H](O)[C@@H](C)[C@@H](O)[C@@H](C)[C@H](OC(C)=O)[C@@H]1C", 1),
]

Provide Assigned classification CYP1A2 values for the following items, in order.
1. O=C1NC(=O)C(c2ccccc2)(c2ccccc2)N1 [Phenytoin sodium]
2. COc1ccc2[nH]c([S+]([O-])Cc3ncc(C)c(OC)c3C)nc2c1 (stereo not shown)

Reply:
1: 1; 2: 1

Ask: Entry under review: COc1ccccc1Oc1c(NS(=O)(=O)c2ccc(C(C)(C)C)cc2)nc(-c2ncccn2)nc1OCCO [Bosentan hydrate] . Reported Assigned classification CYP1A2?
Reply: 0
